log10 of CLH values for the molecules below.
tested on: Liver microsome; test: Intrinsic clearance in human liver microsomes at 2.5 uM; assay type: ADME
observationType: log10 of CLH (log10 of the value in mL/min/g)

smilesData	testSystem	log10 of CLH
O=S(=O)(c1ccc(F)c(F)c1)c1cnc2c(F)cccc2c1-c1ccc(Cl)cc1	Liver microsome	-0.55
Cc1ccc(S(=O)(=O)c2cnc3ccccc3c2N2CCOCC2)cc1C	Liver microsome	0.53
Cc1ccc(S(=O)(=O)c2cnc3ccccc3c2-c2ccc(Cl)cc2)cc1	Liver microsome	0.33
N#Cc1cccc(S(=O)(=O)c2cnc3cc(F)ccc3c2-c2ccc(Cl)cc2)c1	Liver microsome	-0.51
Cc1ccc(S(=O)(=O)c2cnc3ccccc3c2N2CCC(C)CC2)cc1	Liver microsome	0.55

----------
test system: Liver microsome; assay: Intrinsic clearance in human liver microsomes at 2.5 uM; assay type: ADME
observationType: CLH (mL/min/g)

smilesData	valueUnits	numericValue
Cc1ccc(S(=O)(=O)c2sc3ncccc3c2-c2ccc(Cl)cc2)cc1	mL/min/g	2.31
O=S(=O)(c1cc(Cl)cc(Cl)c1)c1cnc2cc(F)ccc2c1-c1ccc(F)cc1	mL/min/g	0.2
O=S(=O)(c1ccc(Cl)c(F)c1)c1cnc2cc(F)ccc2c1-c1ccc(F)cc1	mL/min/g	0.5

----------
target: Metabotropic glutamate receptor 5 (Rattus norvegicus, UniProt P31424); experiment: Displacement of [3H]MPEP from rat mGlu5 receptor expressed in rat cerebrocortical membrane measured after 1 hr; type: cell membranes
Sequence (P31424 whole entry): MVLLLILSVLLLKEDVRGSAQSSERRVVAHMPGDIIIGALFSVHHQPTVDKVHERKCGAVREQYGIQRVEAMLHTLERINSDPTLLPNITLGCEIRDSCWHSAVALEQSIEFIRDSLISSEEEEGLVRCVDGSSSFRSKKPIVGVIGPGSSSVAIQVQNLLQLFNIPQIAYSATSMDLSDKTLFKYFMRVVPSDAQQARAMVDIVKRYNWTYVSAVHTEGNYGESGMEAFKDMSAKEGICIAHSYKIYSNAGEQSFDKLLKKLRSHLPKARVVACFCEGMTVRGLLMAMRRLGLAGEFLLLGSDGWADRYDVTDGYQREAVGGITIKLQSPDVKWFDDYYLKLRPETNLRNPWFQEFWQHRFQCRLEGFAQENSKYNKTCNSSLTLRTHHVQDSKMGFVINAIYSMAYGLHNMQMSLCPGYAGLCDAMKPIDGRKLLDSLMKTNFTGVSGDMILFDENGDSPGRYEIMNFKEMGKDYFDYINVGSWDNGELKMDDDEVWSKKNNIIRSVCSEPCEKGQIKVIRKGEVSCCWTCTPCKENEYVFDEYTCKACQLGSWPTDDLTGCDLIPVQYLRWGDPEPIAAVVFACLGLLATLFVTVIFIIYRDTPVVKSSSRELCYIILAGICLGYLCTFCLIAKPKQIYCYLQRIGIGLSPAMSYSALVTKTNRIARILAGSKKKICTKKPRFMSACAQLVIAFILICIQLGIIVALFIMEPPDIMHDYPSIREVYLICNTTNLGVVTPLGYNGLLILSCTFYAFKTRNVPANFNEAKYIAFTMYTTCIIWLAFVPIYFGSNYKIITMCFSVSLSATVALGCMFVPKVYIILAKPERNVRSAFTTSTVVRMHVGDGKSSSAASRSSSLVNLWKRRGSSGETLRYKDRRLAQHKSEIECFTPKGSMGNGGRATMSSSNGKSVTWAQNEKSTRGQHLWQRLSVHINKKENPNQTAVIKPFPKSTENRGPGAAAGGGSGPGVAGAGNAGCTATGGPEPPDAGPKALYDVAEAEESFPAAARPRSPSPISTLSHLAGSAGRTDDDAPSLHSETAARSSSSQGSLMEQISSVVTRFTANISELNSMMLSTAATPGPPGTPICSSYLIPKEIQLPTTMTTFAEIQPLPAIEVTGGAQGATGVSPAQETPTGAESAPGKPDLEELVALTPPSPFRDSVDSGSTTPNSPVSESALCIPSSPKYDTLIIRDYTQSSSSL

smilesData	valueUnits	Ki
Cc1ccc(S(=O)(=O)c2cnc3ccccc3c2N2CCC(C)CC2)cc1	nM	22
O=S(=O)(c1cc(Cl)cc(Cl)c1)c1cnc2cc(F)ccc2c1-c1ccc(F)cc1	nM	11.5
O=S(=O)(c1ccc(F)c(F)c1)c1cnc2c(F)cccc2c1-c1ccc(Cl)cc1	nM	8.4
Cc1ccc(S(=O)(=O)c2cnc3ccccc3c2-c2ccc(Cl)cc2)cc1	nM	9.5
Cc1ccc(S(=O)(=O)c2sc3ncccc3c2-c2ccc(Cl)cc2)cc1	nM	15
N#Cc1cccc(S(=O)(=O)c2cnc3cc(F)ccc3c2-c2ccc(Cl)cc2)c1	nM	5.3

----------
test system: Liver microsome; experiment: Intrinsic clearance in Wistar rat liver microsomes at 2.5 uM; format: ADME
Criterion: CLH strictly under 10 mL/min/g. Met: 1. Not met: -1.

smilesData	class
O=S(=O)(c1ccc(F)c(F)c1)c1cnc2c(F)cccc2c1-c1ccc(Cl)cc1	1
O=S(=O)(c1ccc(Cl)c(F)c1)c1cnc2cc(F)ccc2c1-c1ccc(F)cc1	1
Cc1ccc(S(=O)(=O)c2sc3ncccc3c2-c2ccc(Cl)cc2)cc1	-1
O=S(=O)(c1cc(Cl)cc(Cl)c1)c1cnc2cc(F)ccc2c1-c1ccc(F)cc1	1
Cc1ccc(S(=O)(=O)c2cnc3ccccc3c2N2CCC(C)CC2)cc1	-1
Cc1ccc(S(=O)(=O)c2cnc3ccccc3c2-c2ccc(Cl)cc2)cc1	-1
N#Cc1cccc(S(=O)(=O)c2cnc3cc(F)ccc3c2-c2ccc(Cl)cc2)c1	1
Cc1ccc(S(=O)(=O)c2cnc3ccccc3c2N2CCOCC2)cc1C	-1
